# test.system: hNET (Homo sapiens)
# Construct: expressed in transfected cells
# Sequence (P23975 whole entry): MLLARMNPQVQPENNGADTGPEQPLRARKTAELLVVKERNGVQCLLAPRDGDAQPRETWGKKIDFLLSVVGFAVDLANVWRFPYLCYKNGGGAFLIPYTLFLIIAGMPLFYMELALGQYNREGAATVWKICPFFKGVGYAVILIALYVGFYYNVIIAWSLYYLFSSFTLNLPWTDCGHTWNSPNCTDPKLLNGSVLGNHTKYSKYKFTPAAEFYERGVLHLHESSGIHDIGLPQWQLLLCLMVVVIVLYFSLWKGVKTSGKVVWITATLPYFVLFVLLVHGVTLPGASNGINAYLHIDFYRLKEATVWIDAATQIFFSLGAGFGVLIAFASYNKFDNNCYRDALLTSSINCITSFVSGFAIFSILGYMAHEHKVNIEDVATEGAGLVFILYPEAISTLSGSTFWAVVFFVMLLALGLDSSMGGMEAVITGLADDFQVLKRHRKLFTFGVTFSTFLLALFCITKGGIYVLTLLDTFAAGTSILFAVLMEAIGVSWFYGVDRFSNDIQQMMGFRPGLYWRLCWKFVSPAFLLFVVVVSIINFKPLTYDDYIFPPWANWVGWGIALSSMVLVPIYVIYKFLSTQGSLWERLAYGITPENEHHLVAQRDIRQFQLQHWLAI
# protocol.text: Norepinephrine (NE) uptake assay in MDCK-Net6 cells stably transfected with human hNET
# Format: cell-based
# condition: test compound 1 μM; [3H]NE uptake, MDCK-Net6 cells; read-out: % Inhibition @ 1 μM (hNET)
Counter-ions that a name gives are not always drawn.
Entry flag: yes if inhibition at 1 µM reaches 70%; no if it does not.

compound="CNC[C@@H](O)[C@H](c1cc(F)cc(F)c1)N1CCc2ccc(F)cc21 [Example 174, hydrochloride]" discrete_label=yes
compound="CNC[C@@H](O)[C@H](c1cccc(F)c1)n1ccc2cc(C(F)(F)F)ccc21 [Example 185, hydrochloride]" discrete_label=yes
compound=CNC[C@@H](O)[C@H](c1cccc(F)c1)n1cc(-c2ccccc2C)c2ccccc21 discrete_label=yes
compound="CNC[C@@H](O)[C@H](c1ccc(OC(F)(F)F)cc1)n1ccc2ccccc21 (racemic) [Example 39, hydrochloride]" discrete_label=no

Does the compound CNC[C@@H](O)[C@H](c1cccc(F)c1)n1cc(-c2ccccc2C(F)(F)F)c2ccccc21 [Example 175, hydrochloride] have recorded inhibition at 1 µM that is 70% or more?
yes

I'd appreciate it if you could say whether CNC[C@@H](O)[C@H](c1cccc(F)c1)n1ccc2c(C#N)cccc21 [Example 131, hydrochloride] has inhibition at 1 µM at least equal to 70%.
no

Determine whether this compound has inhibition at 1 µM no lower than 70%: CN1CCN(C[C@@H](O)[C@H](c2cccc(F)c2)n2ccc3ccccc32)CC1 [Example 58, dihydrochloride]
no

Hello, I need to know if CNC[C@@H](O)[C@H](c1ccc(OC(F)(F)F)cc1)n1ccc2ccccc21 (single isomer, unassigned) [Example 40, hydrochloride] has measured inhibition at 1 µM not below 70%. Thanks!
no

Say whether O[C@@H](CN1CCCCC1)[C@@H](c1ccccc1)n1ccc2cc(Cl)ccc21 (racemic) [Example 15, hydrochloride] shows inhibition at 1 µM of 70% or more.
no

Decide: is the reported value of inhibition at 1 µM for CNC[C@@H](O)[C@H](c1ccccc1)n1ccc2cccnc21 equal to or greater than 70%?
no

----------
# test.system: hNET (Homo sapiens)
# Construct: expressed in transfected cells
# protocol.text: Norepinephrine (NE) uptake assay in MDCK-Net6 cells stably transfected with human hNET
# Format: cell-based
# condition: test compound 1 μM; [3H]NE uptake, MDCK-Net6 cells; read-out: % Inhibition @ 1 μM (hNET)
Structures can show the parent of a compound that is named as a salt.
endpoint.label: inhibition at 1 µM (%)
Reply numerically in %, unit not repeated.

molecule="Cc1cn([C@@H](c2ccccc2)[C@H](O)CN)c2c(F)cccc12 [Example 180, hydrochloride]" output_unit=% result=70.4
molecule="NC[C@@H](O)[C@H](c1cccc(F)c1)n1ccc2ccccc21 [Example 134, hydrochloride]" output_unit=% result=68.5

The reported value for NC[C@H](O)[C@@H](c1ccccc1)n1ccc2ccccc21 (racemic) [Example 17, hydrochloride] in terms of inhibition at 1 µM is 71

Please fill in: inhibition at 1 µM reported for CNC[C@@H](O)[C@H](c1ccccc1)n1ccc2cc(C(F)(F)F)ccc21 [Example 188, hydrochloride] = 71.6
